Test system: panel of 12 human tumour cell lines
METHOD DESCRIPTION: monolayer proliferation assay (modified propidium iodide assay) in a panel of 12 human tumour cell lines
Type: cell-based
DETAILS: 1 μM; mean growth across 12 cell-line panel, treated/control x 100; 4 days exposure
Experimental: In vitro evaluation of compounds for anticancer activity in a panel of 12 human tumour cell lines in a monolayer proliferation assay was carried out at the Oncotest Testing Facility, Institute for Experimental Oncology, Oncotest GmbH, Freiburg. […] All cell lines, unless otherwise specified, were grown at 37° C. in a humidified atmosphere (95% air, 5% CO2) in a ‘ready-mix’ medium containing RPMI 1640 medium, 10% fetal calf serum, and 0.1 mg/mL gentamicin (PAA, Cölbe, Germany). […]
MEASUREMENT KIND: Mean % T/C at 1 μM (% T/C)
Reply with just the number (in % T/C).

// solved cases for Mean % T/C at 1 μM follow
# COMPOUND, U, Mean % T/C at 1 μM
rows = [
    ("CC1CC(C)CC(C)C(O)C(C#N)=CC=CCC(C2CCC2C(=O)NCc2ccncc2)OC(=O)CC(O)C(C)C1 (centres unmarked)", "% T/C", 104),
    ("CC1CC(C)CC(C)C(O)C(C#N)=CC=CCC(C2CCC2C(=O)NCCN2CCOCC2)OC(=O)CC(O)C(C)C1 (centres unmarked)", "% T/C", 101),
    ("CC1CC(C)CC(C)C(O)C(C#N)=CC=CCC(C2CCC2C(=O)NCCc2cccnc2)OC(=O)CC(O)C(C)C1 (centres unmarked)", "% T/C", 97),
    ("C[C@@H]1C[C@H](C)C[C@H](C)[C@@H](O)CC(=O)O[C@H]([C@@H]2CCC[C@H]2C(=O)O)C/C=C/C=C(/C#N)[C@H](O)[C@@H](C)C1", "% T/C", 7),
    ("C[C@@H]1C[C@H](C)C[C@H](C)[C@@H](O)CC(=O)O[C@@H](C2CC[C@H]2C(=O)O)C/C=C/C=C(/C#N)[C@H](O)[C@@H](C)C1 (some centres unmarked)", "% T/C", 33),
]

Value lookup for Mean % T/C at 1 μM; key = CC1CC(C)CC(C)C(O)C(C#N)=CC=CCC(C2CCC2C(=O)NCc2cccnc2)OC(=O)CC(O)C(C)C1 (centres unmarked) 97

Bench note: what Mean % T/C at 1 μM did CC1CC(C)CC(C)C(O)C(C#N)=CC=CCC(C2CCC2C(=O)NCc2ccccn2)OC(=O)CC(O)C(C)C1 (centres unmarked) show? 87

So what's the measured Mean % T/C at 1 μM for this one? CC1CC(C)CC(C)C(O)C(C#N)=CC=CCC(C2CCC2C(N)=O)OC(=O)CC(O)C(C)C1 (centres unmarked) 92
